Assay: PK of compound of Formula (Ia) after single subcutaneous dose of solution formulations in Wistar Han rats
Type: in vivo
Settings: male, Wistar Han, rat, plasma, sc, 50 mg/kg, Wistar Han rats, SC 50 mg/kg, 400 mg/mL solution AA (6.25% poloxamer 188), 8.00 h, Mean n = 4
Measurement name: concentration at 8 h (nM)

CC(C)(C#Cc1ccc(-c2ccc(Cl)c3c(NS(C)(=O)=O)nn(CC(F)(F)F)c23)c([C@H](Cc2cc(F)cc(F)c2)NC(=O)Cn2nc(C(F)(F)F)c3c2C(F)(F)[C@@H]2C[C@H]32)n1)S(C)(=O)=O | 122
